Test system: NCI-H460
experiment: NCI tumour cell line growth inhibition, 48 h
Activity calls are given as the source filed them. No stated cut-off is given here; in the data, active = GI50 up to about 1.1 µM and inactive = higher.
Give one outcome, nothing more. List: active, inactive

Known results for compounds:
COC(=O)[C@@H]1[C@H]2CC[C@]3(C)[C@@H](OC(C)=O)CC[C@H]3[C@@H]2CC[C@H]1C1(C)SCCS1	inactive
O=S(=O)(N/N=C/c1cccc(Cl)c1Cl)c1ccccc1	inactive
O=C1Cc2c([nH]c3ccccc23)-c2ccccc2N1	inactive
C[C@]12CC/C(=N\OC(=O)Nc3ccccc3)C=C1CC[C@@H]1C2CC[C@@]2(C)C1CC[C@@H]2OC(=O)Nc1ccccc1 (some centres not stated)	inactive
CC1(C)OC(=S)N(c2ccccc2)C12C=Cc1cc3ccccc3nc1S2 (configuration not stated)	inactive

In: GET /call?item= CC12OOC(c3ccccc31)c1c2ccc2ccccc12 (configuration not stated) returns the recorded outcome of this test.
Out: inactive

In: GET /call?item= CCN1CCC(O)(c2ccc(Oc3ccccc3)cc2)C(C(=O)c2ccc(Oc3ccccc3)cc2)C1 (configuration not stated) returns the recorded outcome of this test.
Out: inactive

In: GET /call?item= `O=C1C(N2CCCC2)=CC(=O)c2c(O)c(N3CCCC3)c(Cl)c(O)c21` returns the recorded outcome of this test.
Out: inactive

In: GET /call?item= COc1cccc2c1C(=O)c1c(O)c3c(c(O)c1C2=O)C[C@@](O)(C(=O)CO)CC3OC1CC(O)C(O)C(C)O1 (some centres not stated) returns the recorded outcome of this test.
Out: active

In: GET /call?item= `Cc1nc(O)c(O)c(CN2CCCCC2)n1` returns the recorded outcome of this test.
Out: inactive

In: GET /call?item= CC1OC(OC2C(CO)OC(O[C@H]3CC[C@@]4(C)C(=CC[C@H]5[C@@H]6C[C@@H]7O[C@](O)(CC[C@H](C)COC8OC(CO)C(O)C(O)C8O)[C@@H](C)[C@@H]7[C@@]6(C)CC[C@@H]54)C3)C(OC3OC(C)C(O)C(O)C3O)C2O)C(O)C(O)C1O (some centres not stated) returns the recorded outcome of this test.
Out: inactive

In: GET /call?item= `O=C1CCCc2ccc([N+](=O)[O-])c(O)c21` returns the recorded outcome of this test.
Out: inactive

In: GET /call?item= `C=C1[C@H](OC(=O)C(C)C)[C@@H](OC(C)=O)[C@@H](OC(C)=O)C(C)(C)[C@@H]2O[C@H]2[C@@H](C)C(=O)[C@@]2(OC(C)=O)C[C@@](C)(OC(C)=O)[C@H](OC(C)=O)[C@@H]2[C@H]1OC(C)=O` returns the recorded outcome of this test.
Out: inactive

In: GET /call?item= CCN(CC)Cc1nc(C2CCC([N+](=O)[O-])O2)no1 (configuration not stated) returns the recorded outcome of this test.
Out: inactive

In: GET /call?item= `CC(=O)c1cc2c(s1)C(=O)c1sccc1C2=O` returns the recorded outcome of this test.
Out: active

In: GET /call?item= `Cc1cccc(C(C)C)c1NC(=O)C(=O)CC(=O)c1c(C)[n+]([O-])c2ccccc2[n+]1[O-]` returns the recorded outcome of this test.
Out: inactive

In: GET /call?item= `CC#C[P+](c1ccccc1)(c1ccccc1)c1ccccc1` returns the recorded outcome of this test.
Out: inactive

Taken from ChEMBL document CHEMBL1201862.
